Recorded IC50 for compounds tested on UniProt P09874, drawn from a number of studies.
Grouping by measured IC50 is done with the following cut points: class 1 = under 50 nM, class 2 = from 50 nM up to 100 nM, class 3 = 100 nM and over

{"compound": "O=C(CCSc1nccc(=O)[nH]1)N[C@H]1CC[C@H](c2nnc(-c3ccccc3)o2)CC1", "groupLabel": "class 3"}
{"compound": "CCc1nc2ccc([C@H](C)N3CCN(c4ccc(C(=O)NC)nc4F)CC3)c(F)c2[nH]c1=O (single isomer, unassigned)", "groupLabel": "class 1"}
{"compound": "CC(C)C1Cc2[nH]c(=O)c3cccnc3c2CO1 (racemic)", "groupLabel": "class 3"}
{"compound": "O=C(CCSc1nc2ccccc2c(=O)[nH]1)N[C@H]1CC[C@H](Oc2ccc(Cl)cc2)CC1", "groupLabel": "class 3"}
{"compound": "[2H]C([2H])([2H])NC(=O)c1ccc(N2CCN(Cc3ccc4c([nH]c(=O)c5ccnn54)c3F)CC2)c(F)n1", "groupLabel": "class 1"}
{"compound": "CC(C)(O)C(=O)Nc1cccc2c1Cc1c-2[nH]c(=O)c2c1CCCC2", "groupLabel": "class 3"}
{"compound": "O=c1[nH]c(N2CCN(c3c(F)cccc3F)CC2)nc2c1ccn2CC(O)CO (stereo not shown)", "groupLabel": "class 3"}
{"compound": "CC(C)(C)C1Cc2[nH]c(=O)c3ccc(C#N)cc3c2CO1 (racemic)", "groupLabel": "class 3"}
{"compound": "Cc1cccc2c(=O)[nH]c3c(c12)COC(C(C)C)C3 (racemic)", "groupLabel": "class 3"}
{"compound": "CC(C)n1ncc2c1CN(C(=O)c1cc(Cc3n[nH]c(=O)c4ccccc34)ccc1F)C2", "groupLabel": "class 2"}
{"compound": "O=c1[nH]c2c(c3ccccc13)COC(C1CCOC1)C2 (mixture of isomers)", "groupLabel": "class 3"}
{"compound": "N#Cc1ccc2c(c1)[nH]c(=O)n2[C@H]1CC[C@H](NC(=O)CCSc2nc3ccccc3c(=O)[nH]2)CC1", "groupLabel": "class 3"}
{"compound": "COCCN1CC2CN(C(=O)c3cc(Cc4n[nH]c(=O)c5ccccc45)ccc3F)CC2C1 (stereo not shown)", "groupLabel": "class 1"}
{"compound": "CCc1cc2ncc(CN3CC[C@@H](Oc4ccc(C(=O)NC5CC5)nc4)C3)cc2[nH]c1=O", "groupLabel": "class 1"}
{"compound": "Cc1nc2ccc([C@H](C)N3CCN(c4ccc(C(=O)NC5CC5)nc4F)CC3)c(F)c2[nH]c1=O (single isomer, unassigned)", "groupLabel": "class 1"}
{"compound": "CC1(C(=O)N2CCC(C3Cc4[nH]c(=O)c5ccccc5c4CO3)CC2)CC1 (racemic)", "groupLabel": "class 2"}
{"compound": "CC(C)(CO)C1Cc2[nH]c(=O)c3ccccc3c2CO1 (racemic)", "groupLabel": "class 2"}
